# System: OVCAR-4 ovarian
# assayDetails: NCI-60 one-dose screen, 48 h (100 = growth as untreated, 0 = no growth, -100 = all killed)
# conditionDetails: 10 µM unless noted
Compounds without any hit were thinned out: in the full panel of roughly 83,000, 20% have a hit.
The label is 1.0 for growth below 90% and 0.0 for growth equal to or exceeding 90%.

Study these solved cases before continuing.
Qu. # TODO verify growth < 90% strictly for this compound: COc1cc2cc(Oc3cccc(NC(=O)Nc4cc(C(F)(F)F)cc(C(F)(F)F)c4)c3)c(C)nc2cc1OC
Ans. 1.0

Qu. Is it true that growth reported for O=[N+]([O-])c1cc(Br)c2cccc3c2c1CC3 is less than 90%?
Ans. 0.0

Qu. Determine whether this compound shows growth lower than 90% (ties excluded): CC1=CCC(OC(=O)C(C)(O)CCC(O)(C(=O)OC2(C)C=CC(O)(C(C)C)CC2)C(C)C)(C(C)C)CC1 (stereo unspecified)
Ans. 0.0

Qu. Bench note: check whether COCCCN1CC(O)=C(c2nc(-c3ccc(C)cc3)cs2)C1=N shows growth below 90%
Ans. 0.0

Qu. Does the reported growth of the following compound sit strictly below 90%? O=C(NCCNc1nccc(-c2c(-c3cccc(F)c3)nc3sccn23)n1)c1ccc(Cl)cc1
Ans. 1.0

More entries:
Qu. Just wondering, is growth of COc1cc2c(=O)n(CCN)c3c4cc5c(cc4ccc3c2cc1OC)OCO5 below 90%?
Ans. 1.0

Qu. Report whether reported growth is lower than 90% (strictly) for COc1ccc(C(=O)NNc2nc(Cl)nc(N3CCN(C(c4ccccc4)c4ccccc4)CC3)n2)cc1
Ans. 1.0

Qu. Does this compound meet the criterion growth < 90%? COc1cc2c(=O)n(CCN(C)C)c3c4cc5c(cc4ccc3c2cc1OC)OCO5
Ans. 1.0

Qu. Determine if O=c1ccc(-c2nc(N3CCOCC3)c3ccccc3n2)c[nH]1 shows growth strictly lower than 90%.
Ans. 0.0

Qu. Does this compound meet the criterion growth < 90%? CCN(CC)c1ccc(C(=O)c2ccccc2)cc1
Ans. 0.0

Qu. Consider the compound COc1ccc(NC(N)=NCCCOc2ccc(F)cc2)cc1 . Is its growth strictly less than 90%?
Ans. 1.0
